system: MS2 coat protein; experiment: apparent KD of MS2 coat protein; designed switch direction (-1 OFF switch, 1 ON switch): -1; higher = weaker reporter binding; conditions: input ligand: FMN 200 uM
Note to self: values exactly at 100 nM are 1. So apparent KD of MS2 coat protein at or above 100 nM is 1, below is -1.

Take a look at these entries with their results.
**Query** apparent KD of MS2 coat protein >= 100 nM for AUAUAGAUAGUCAGGAUAUGCUAGUGAUAACAGUAGUAGAAGGGACAUGAGGAUCACCCAUGUAGAUACUGCAC [Brourd's EX4 #3] (Eterna round: R97, puzzle: Brourd's mod of Exclusion 4) ?
**Result** -1

**Query** apparent KD of MS2 coat protein >= 100 nM for UGAUUUGGAGGAUAUACAUGAGGAUCACCCAUGUAAAGGCCGUGGGUCGAACCCGAGAGUAGAAGGUCGAGAGA [Eternabot (L1) Solution 30] (Eterna round: R97, puzzle: Exclusion 3) ?
**Result** 1

**Query** apparent KD of MS2 coat protein >= 100 nM for CUAAUACAUCAGGAUAUGAUAGCCUAUAGCAUAUCAGAAGGGAUGACAUGAGGAUCACCCAUGUCAAAGGGUGA [eternacac ex6r4 sub19] (Eterna round: R97, puzzle: Exclusion 6) ?
**Result** 1

**Query** apparent KD of MS2 coat protein >= 100 nM for AGCUGUGGCCGAGGAUAUCCAACUUCAAAUACCGACGUAUAGUCGGACAUGAGGAUCACCCAUGUGGAGAAGGCGGUCUCAGCA [Eli eng2 - 038] (Eterna round: R96, puzzle: Exclusion NG 2) ?
**Result** -1

**Query** apparent KD of MS2 coat protein >= 100 nM for CUGAGAAUAGGAUAUACUAACAAUGGAGUAGCUUCACGUCAACAUGAGGAUCACCCAUGUAGAAGGGUUAGCGG [Eternabot (L1) Solution 33] (Eterna round: R97, puzzle: Exclusion 2) ?
**Result** -1

**Query** apparent KD of MS2 coat protein >= 100 nM for GUGCCGCGAGGAUAUACAGACGGGUCCAAAACGUGUCUCGGACUUGAGGAUCACCCAAGUAGAAGGCGUUUCAG [salish99_ex2_r4_620] (Eterna round: R97, puzzle: Exclusion 2) ?
**Result** -1

**Query** apparent KD of MS2 coat protein >= 100 nM for AGCGGAGAUGUCAGGAUAUCUCGCUCGGUGGGUUGAGAGAAGGGACAUGAGGAUCACCCAUGUCUGCAAUUGUC [Eternabot (Original) Solution 46] (Eterna round: R97, puzzle: Brourd's mod of Exclusion 4) ?
**Result** -1

**Query** apparent KD of MS2 coat protein >= 100 nM for UUCCUCGUUGUGAGGAUAUCGUCCUAUUUUUGUUACGAGAAGGCACAUGAGGAUCACCCAUGUUACUUGAUGUU [JR_BMOE4_Sub071] (Eterna round: R96, puzzle: Brourd's mod of Exclusion 4) ?
**Result** 1

**Query** apparent KD of MS2 coat protein >= 100 nM for GGUACUCAAAGAGUACCAAUACGAACAUGAGGAUCACCCAUGUAGGAUAUGCUACUCAAAGAGUAGCAGAAGGAUAUGAGCCUC [Far Half Aptamer v11] (Eterna round: R96, puzzle: Exclusion NG 3) ?
**Result** 1

Okay, now this sequence:
**Query** apparent KD of MS2 coat protein >= 100 nM for UAAGAUUACCGAGGAUAUGCUGGUUUCUCUCAAGCAGAAGGCGGACUCAACAUGAGGAUCACCCAUGUAAGACGGGUACUAGAU [Ex NG1 #11] (Eterna round: R96, puzzle: Exclusion NG 1) ?
**Result** 1

====

system: MS2 coat protein; assay: apparent KD of MS2 coat protein; designed switch direction (-1 OFF switch, 1 ON switch): -1; higher = weaker reporter binding; conditions: input ligand: FMN 200 uM
I'd appreciate it if you could supply apparent KD of MS2 coat protein values for the items below.

// below: answered sequences
**Query** Please give measured apparent KD of MS2 coat protein of the following entry: AUGGGUCCUCACGGAGCUACAUGAGGAUCACCCAUGUGUAUUGAGGAUAUCCACUGCCGAGGGCUGGAGAAGGCAGUGUACUGU [Ex NG3 #92] (Eterna round: R96, puzzle: Exclusion NG 3)
**Result** 124 nM

**Query** Please give measured apparent KD of MS2 coat protein of the following entry: CAAUAGAAAGGAUAUACAGUAGGCGUUGUGCUCGAGCACUCACAUGAGGAUCACCCAUGUAGAAGGUUCAGUUA [EX2 C.18] (Eterna round: R97, puzzle: Exclusion 2)
**Result** 27.9 nM

**Query** Please give measured apparent KD of MS2 coat protein of the following entry: GCCGAUUAAGUGAGGAUAUACCUAUGGAUACAUAGGUAGAAGGCACAUGAGGAUCACCCAUGUUCCUCAUCGGC [Fiskers BMX 4 - 11] (Eterna round: R96, puzzle: Brourd's mod of Exclusion 4)
**Result** 155 nM

Next:
**Query** Please give measured apparent KD of MS2 coat protein of the following entry: CCGACUCAAGGAUAUUGUACUGCUGACAUGAGGAUCACCCAUGUAUGUUAACUCGGCCGACGAGAAGGUGACGACA [BotMod 1 - Jieux - Exclusion 5] (Eterna round: R97, puzzle: Exclusion 5)
**Result** 39.6 nM

====

system: MS2 coat protein; assay: apparent KD of MS2 coat protein, switch OFF state (with FMN for OFF switches, without FMN for ON switches); designed switch direction (-1 OFF switch, 1 ON switch): -1; higher = weaker reporter binding; settings: FMN input: 0 or 200 uM; Eterna round: R93 (includes R88 designs)
Note to self: values exactly at 40 nM are 1. So apparent KD of MS2 coat protein at or above 40 nM is 1, below is -1.

**Query** apparent KD of MS2 coat protein >= 40 nM for AGUGAGUGAGGAUAUUACUGAAGAAUAAAAGAAAUAACAAGUAAGAAGGCACAUGAGGAUCACCCAUGUACACA [May 61] ?
**Result** -1

**Query** apparent KD of MS2 coat protein >= 40 nM for AAAAAACAUGAGGAUCACCCAUGUGAGGAUAUGAACGAAAUAAAAUAAAAAUAAAAGUUCAGAAGGCACAAAAA [Mat - Exclusion 1 - Eli mod - D11] ?
**Result** 1

**Query** apparent KD of MS2 coat protein >= 40 nM for AAAAAGUCAGGAUAUGUCAAAGGUCACGAAAGUGACAAAGGACAGAAGGGACAUGAGGAUCACCCAUGUAAAAA [Fiskers Exclusion 4 D1] ?
**Result** 1

**Query** apparent KD of MS2 coat protein >= 40 nM for AAUGUACGAGGAUAUACAUAGAUACAGAUACAUGUAGACGUACAUGAGGAUCACCCAUGUAGAAGGCGUAUAUA [Mat - Same state - Mayanna Mod - D113] ?
**Result** 1

**Query** apparent KD of MS2 coat protein >= 40 nM for AACUGACAUGAGGAUCACCCAUGUCAGGAUAUGACAUCGAAAAAUAAAUAAAUCGUUGUCAGAAGGGACAUGGA [Design 74: Sub-opt RB] ?
**Result** -1

**Query** apparent KD of MS2 coat protein >= 40 nM for GAAAACCUAGGAUAUACAUGAGGAUCACCCAUGUCAGUAGACUGGGAAAGGUCUCUCAGUAGAAGGAGGACCCG [Zaered] ?
**Result** 1

**Query** apparent KD of MS2 coat protein >= 40 nM for `AAACGUUGAGGAUAUACAGAAGGGUAUAAAUCAAAAAAAACACAUGAGGAUCACCCAUGUAGAAGGCAACGAAA` ?
**Result** 1

**Query** apparent KD of MS2 coat protein >= 40 nM for ACAAGACAUGAGGAUCACCCAUGUGAGGAUAUGCUCGGAUGACAUGACGUUAGCUAACGCAGAAGGCACAAUAA [Exclusion 1] ?
**Result** -1

**Query** apparent KD of MS2 coat protein >= 40 nM for AAUGGUGCAGGAUAUACAUGAGGAUCACCCAUGUAGAUCAGACAUAUGGUCGAAACAUGUAGAAGGGCACCAAA [Ex 3May 54] ?
**Result** 1

====

system: MS2 coat protein; test: apparent KD of MS2 coat protein, switch ON state; designed switch direction (-1 OFF switch, 1 ON switch): -1; higher = weaker reporter binding; conditions: FMN input: 0 or 200 uM; Eterna round: R93 (includes R88 designs)
Note to self: values exactly at 40 nM are 1 (yes). So apparent KD of MS2 coat protein at or above 40 nM is 1 (yes), below is 0 (no).

Take a look at these entries with their results.
**Query** apparent KD of MS2 coat protein >= 40 nM for AAAAAAAAAGGAUAUAAAAAAAAAAGUCAGGAUAUAGGAAACUAGAAGGGACAUGAGGAUCACCCAUGUAAAAA [Meechl Ex4 R2 m0] ?
**Result** 1 (yes)

**Query** apparent KD of MS2 coat protein >= 40 nM for AGGAAGUGAGGAUAUGCAUCAUAUAGUGGACGCUAUAGGAUGUAGAAGGCACAUGAGGAUCACCCAUGUUUAAA [EX4 Malc#40] ?
**Result** 0 (no)

**Query** apparent KD of MS2 coat protein >= 40 nM for CUCAUGUAAGGAUAUGACUACAUAAAAAAAAAAAAAUGUAGUCAGAAGGUACAUGAGGAUCACCCAUGUACAAA [Brourd - Exclusion 4 - Sub 3] ?
**Result** 1 (yes)

**Query** apparent KD of MS2 coat protein >= 40 nM for AGAAAGCGAGGAUAUGCUCGGGUUGAAUGACGAGAGAAUACACAUGAGGAUCACCCAUGUAGAAGGUGUAUAAA [JR_Exc002_Sub1712] ?
**Result** 1 (yes)

**Query** apparent KD of MS2 coat protein >= 40 nM for AAGAGUAGAGGAUAUACAUGAAAAGAGUCGAAAGACUCAAAACAUGAGGAUCACCCAUGUAGAAGGCUACUCAA [Hyphema Seclusion Mod 62% 3] ?
**Result** 1 (yes)

**Query** apparent KD of MS2 coat protein >= 40 nM for AGGAAACAUGAGGAUCACCCAUGUAAGGAUAUGAACGAAAAUAAAUAAAAAUAAAAGUUCAGAAGGUACGAAAA [66%, Wbt, 7] ?
**Result** 0 (no)

Next:
**Query** apparent KD of MS2 coat protein >= 40 nM for GGGCCACAUGAGGAUCACCCAUGUAAGGAUAUGCUAGGGAUGGAAACCAUUACGCAAAGCAGAAGGUACUAAAG [Janelle Amethyst 18 Mod 10 - Jieux - Exclusion 1] ?
**Result** 0 (no)

**Query** apparent KD of MS2 coat protein >= 40 nM for AAAAAGGUAGGAUAUACGAAAAAAAAGGGUAGAAAAAUAAAACAUGAGGAUCACCCAUGUAGAAGGACCAAAAA [Ex 2 sub 1 70% 1] ?
**Result** 0 (no)

**Query** apparent KD of MS2 coat protein >= 40 nM for AAGAACAGAGGAUAUACAUGAGGAUCACCCAUGUAAAAGAAAGAGGGAAAAGAGAAAAGUAGAAGGCUGAAGAA [Arsinoe III] ?
**Result** 0 (no)

**Query** apparent KD of MS2 coat protein >= 40 nM for AAAAAGGCAGGAUAUACGUACAUGUCAAAAGACGUGAAGGGACAUGAGGAUCACCCAUGUAGAAGGGUCAAGAA [JL Stem Breaker 19] ?
**Result** 1 (yes)

**Query** apparent KD of MS2 coat protein >= 40 nM for AAAAAGACAGGAUAUACGUGAAAAAUAAAAAUGUAAAAAAAACAUGAGGAUCACCCAUGUAGAAGGGUCAAAAA [Ecx-I 62% 3] ?
**Result** 1 (yes)

**Query** apparent KD of MS2 coat protein >= 40 nM for AAAAAGGGAGGAUAUGCAAAAAAAAAAAAAAAAAAAAAAAAACAUGAGGAUCACCCAUGUAGAAGGCCCAAAAA [Dora Baggins - Jieux - Exclusion 2] ?
**Result** 0 (no)

**Query** apparent KD of MS2 coat protein >= 40 nM for AGUUGGCGAGGAUAUACAUGAGGAUCACCCAUGUAAAAUAAAUAAAAAGGGAAAAAGAGUAGAAGGCGCUGACA [73%, Moding Norbert Elias, 8] ?
**Result** 1 (yes)
